Where do these numbers come from? They come from PubChem BioAssay AID1159580.

Assay info: chemical genetic growth profiling, strain panel (AID 1159580);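 note: tested at 20 µM; growth read once vehicle control cultures reached saturation at 30 °C; 1 = growth at the plate median or of vehicle wells; lower values mean less growth of the strain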
Condition description: S. cerevisiae deletion strains, growth OD, locus YDL214C, strain PRR2, active compounds read low
The campaign covered roughly 5,500 compounds. About 2,000 (36%) were called active. Inconclusive results (about 18%) are left out. This is one part of the list.
Measurement kind: normalized growth
Note: the reply should be a number with no unit written.

Cc1ccc2nc3c(nc2c1)-c1ccccc1C3=O ... 0.247
CC(C)Sc1c(Cl)cccc1NC(=O)Nc1cccc(C(F)(F)F)c1 ... 0.927
COc1ccc(OC)c2nc3c(nc12)C(=O)c1ccccc1-3 ... 0.997

API: the following record is the query input.
Lab note: measured normalized growth of N#CC(C(=O)Nc1cccc(C(F)(F)F)c1)C(=S)Nc1ccccc1Cl (centres undefined) was 0.296

###

Assay info: chemical genetic growth profiling, strain panel (AID 1159580);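 note: tested at 20 µM; growth read once vehicle control cultures reached saturation at 30 °C; 1 = growth at the plate median or of vehicle wells; lower values mean less growth of the strain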
Condition description: S. cerevisiae deletion strains, growth OD, locus YOR001W, strain rrp6
Out of some 5,500 compounds screened, about 2,000 (36%) were called active. About 18% were inconclusive and are not listed. No stated cut-off is given here; in the data, active means normalized growth mostly below about 0.91 (no sharp cut-off); inconclusive means no clear call, values can overlap the other calls; inactive means mostly above about 0.92. Some of the results follow.
Write down the outcome that applies. Available outcomes: YES for active, NO for inactive

Before answering, review these 5 worked examples.
C=CC[C@@H]1/C=C(\C)C[C@H](C)C[C@H](OC)[C@H]2O[C@@](O)(C(=O)C(=O)N3CCCC[C@H]3C(=O)O[C@H](/C(C)=C/[C@@H]3CC[C@@H](O)[C@H](OC)C3)[C@H](C)[C@@H](O)CC1=O)[C@H](C)C[C@@H]2OC ... YES
O=C1C=C(O)c2ccccc2C1=O ... NO
COc1cc(Cc2cnc(N)nc2N)cc(OC)c1OC ... NO
CNC(=O)Oc1ccccc1OC(C)C ... NO
O=C(N[C@@H](CO)[C@H](O)c1ccc([N+](=O)[O-])cc1)C(Cl)Cl ... NO

Hi team, can someone confirm the assay call for CC(C)=CCC/C(C)=C/CO ?
NO

Field: outcome | Entry: O=C(O)CCC(=O)OC[C@@H](NC(=O)C(Cl)Cl)[C@H](O)c1ccc([N+](=O)[O-])cc1
NO

Outcome? CC(=CC1CCC(C)C2CCC(C)=C12)C(=O)O (centres undefined)
NO

###

Assay info: chemical genetic growth profiling, strain panel (AID 1159580);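 note: tested at 20 µM; growth read once vehicle control cultures reached saturation at 30 °C; 1 = growth at the plate median or of vehicle wells; lower values mean less growth of the strain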
Condition description: S. cerevisiae deletion strains, growth OD, locus YMR263W, strain SAP30, active compounds read low
Hit rate of the full screen: of about 5,500 compounds, about 2,000 (36%) were called active. Another 18% or so got no clear call; they are omitted. This is one part of the list.
# t = normalized growth below 1 (exclusive); f = normalized growth at/above 1

COc1cc2ncnc(Nc3cccc(Cl)c3)c2cc1OC ... t

Decide: normalized growth of CCCCC#Cc1ccc(C(=O)NNC(=O)Nc2cc(Cl)cc(Cl)c2)o1 strictly below 1?
f

Is normalized growth of COc1cc(OC)c2c(OC)c(-c3ccc4c(c3)OCO4)c(=O)oc2c1 strictly below 1?
t

###

Item-by-item account of normalized growth
Assay info: chemical genetic growth profiling, strain panel (AID 1159580);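 note: tested at 20 µM; growth read once vehicle control cultures reached saturation at 30 °C; 1 = growth at the plate median or of vehicle wells; lower values mean less growth of the strain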
Condition description: S. cerevisiae deletion strains, growth OD, locus YFR003C, strain YPI1, active compounds read low
In all, about 5,500 compounds went through this assay and about 2,000 (36%) were called active. Inconclusive results (about 18%) are left out. The list shows a part of the results.
Output spec: single numeric token, no unit.

What the record says about Cc1oc(C(C)(C)C)cc1-c1cc(NC(=O)c2ccccc2)n[nH]1 : normalized growth is 0.988

# molecule CC(C)OC(=O)Nc1cc(Cl)cc(Cl)c1 ; its normalized growth = 0.972

For record COC(=O)c1cc([N+](=O)[O-])ccc1S(=O)(=O)Cc1ccc(Cl)cc1 the listed normalized growth is 0.992

The recorded normalized growth for COc1cc(C2CC(=S)Nc3ccccc3S2)cc(OC)c1OC (configuration not stated) is 0.99

For Cc1cc(N=Cc2cc(Cl)cc(Cl)c2O)no1 the molecule record lists normalized growth as 0.95

For O=[N+]([O-])c1ccc(NCc2ccc(Cl)c(Cl)c2)nc1 the molecule record lists normalized growth as 0.944
